Test system: NCIH292 (lung)
Experiment: Proliferation Assay
Assay type: cell-based
Details: Homo sapiens, NCI-H292, 72 h, read-out: IC50 inhibition of cell growth
Metric name: IC50

Query IC50 for `COc1cccc(C(=O)Nc2nc3cc4c(cc3[nH]2)OC(F)(F)O4)c1`
≤ 1000 nM

* * *

Molecular target: Casein kinase 1 delta (CSKN1D) (Homo sapiens)
Assay: Casein kinase assay, CK1 delta
Conditions: recombinant CSKN1D 5 nM, ATP 10 μM
Metric name: IC50

Compound	Target system	Experimental result
O=C(Nc1nc2cc3c(cc2[nH]1)OC(F)(F)O3)c1ccc(-c2ccccc2)cc1 [Compound 21B]	Casein kinase 1 delta (CSKN1D) (Homo sapiens)	200 to 1000 nM

# return IC50 for O=C(Nc1nc2cc3c(cc2[nH]1)OC(F)(F)O3)c1coc(-c2ccc3c(c2)CCO3)n1 [Compound 40] , test system: Casein kinase 1 delta (CSKN1D) (Homo sapiens)
> 1000 nM

# return IC50 for CC(C)(C)c1ccc(C(=O)Nc2nc3cc4c(cc3[nH]2)OC(F)(F)O4)cc1 [Compound 115] , test system: Casein kinase 1 delta (CSKN1D) (Homo sapiens)
200 to 1000 nM

* * *

# IC50 per record follows
Test system: Hedgehog signaling pathway
Test: Hedgehog reporter assay (Gli Reporter - NIH3T3 Cell Line)
Type: cell-based
Conditions: Mus musculus; Gli reporter NIH3T3 cells, murine SHH stimulation, 24 h; read-out: HH Assay

Substance smiles	IC50
Cc1cc(C)n(-c2cccc(C(=O)Nc3nc4cc5c(cc4[nH]3)OC(F)(F)O5)c2)n1	≤ 500 nM
O=C(Nc1nc2cc3c(cc2[nH]1)OC(F)(F)O3)c1cccc(N2CCCC2)c1	≤ 500 nM

# evaluate next
Query IC50 for `Cc1nc(-c2cccc(C(=O)Nc3nc4cc5c(cc4[nH]3)OC(F)(F)O5)c2)no1`
500 to 1000 nM

* * *

# pIC50 per record follows
Target: Casein kinase 1 delta (CSKN1D) (Homo sapiens, UniProt P48730)
Sequence (P48730 whole entry): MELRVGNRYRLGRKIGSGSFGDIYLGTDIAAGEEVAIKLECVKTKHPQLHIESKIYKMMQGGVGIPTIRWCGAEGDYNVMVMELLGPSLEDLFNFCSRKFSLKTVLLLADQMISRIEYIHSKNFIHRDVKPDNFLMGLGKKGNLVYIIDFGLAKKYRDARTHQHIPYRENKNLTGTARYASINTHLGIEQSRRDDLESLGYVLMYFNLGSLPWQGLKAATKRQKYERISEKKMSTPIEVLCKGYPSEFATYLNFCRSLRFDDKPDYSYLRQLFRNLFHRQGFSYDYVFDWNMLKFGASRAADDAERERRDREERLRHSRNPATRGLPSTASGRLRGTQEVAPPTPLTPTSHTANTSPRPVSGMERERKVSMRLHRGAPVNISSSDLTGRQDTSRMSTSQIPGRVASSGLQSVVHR
Assay: Casein kinase assay, CK1 delta
Settings: recombinant CSKN1D 5 nM, ATP 10 μM
pIC50: −log10 of the molar value.

The cases that follow already have their pIC50 on record.
Molecule	pIC50
O=C(Nc1nc2cc3c(cc2[nH]1)OC(F)(F)O3)c1cccc(C(F)(F)F)c1 [Compound 66]	> 6.70
O=C(Nc1nc2cc3c(cc2[nH]1)OC(F)(F)O3)c1cccc(O)c1 [Compound 113]	> 6.70
O=C(Nc1nc(C(=O)Nc2nc3cc4c(cc3[nH]2)OC(F)(F)O4)ns1)c1ccc(F)cc1 [Compound 92]	> 6.70
Cc1onc(-c2ccccc2)c1C(=O)Nc1nc2cc3c(cc2[nH]1)OC(F)(F)O3 [Compound 50]	< 6.00
Cc1cc(C(=O)Nc2nc3cc4c(cc3[nH]2)OC(F)(F)O4)c(C)s1 [Compound 28]	6.00 to 6.70

Query pIC50 for O=C(Nc1nc2cc3c(cc2[nH]1)OC(F)(F)O3)c1ccsc1 [Compound 20]
> 6.70

* * *

Test system: RDES (bone)
Test: Proliferation Assay
Format: cell-based
Conditions: RD-ES, 72 h, read-out: IC50 inhibition of cell growth
Metric name: IC50

Query IC50 for COc1cccc(C(=O)Nc2nc3cc4c(cc3[nH]2)OC(F)(F)O4)c1 [Compound 56]
≤ 1000 nM
